Target: PDE5A1 (human PDE5 from platelets) (Homo sapiens)
Construct: from tissue; host or cells: platelets from fresh blood of human donors (10,000 g supernatant of sonified platelets)
Assay: Inhibition of type 5 phosphodiesterase (PDE5) activity, modified SPA test
Assay type: biochemical
Details: PDE5-containing human platelet lysate, 0.5 μM cGMP, value classes, read-out: PDE5A1 inhibitory values [measured as −logIC50 (mol/l)] (converted)

| compound | IC50 |
| --- | --- |
| CC(=O)N[C@H]1CC[C@@H](NC(=O)c2c(C)[nH]c3c(-c4cc(C)ccc4OCC4CC4)ccnc23)CC1 | 1 to 10 nM |
| COc1cc(OCC2CC2)c(-c2ccnc3c(C(=O)N[C@H]4CC[C@@H](NC(C)=O)CC4)c(C)[nH]c23)cc1F | < 1 nM |
| COc1ccc(-c2ccnc3c(C(=O)NC4CCN(C(C)=O)CC4)c(C)[nH]c23)c(OCC2CC2)c1 | < 1 nM |
| COc1cc(-c2ccnc3c(C(=O)N[C@@H]4CCN(C(=O)CO)C[C@H]4O)c(C)[nH]c23)c(OCC2CC2)cc1F (relative stereo) | < 1 nM |
| COc1ccc(-c2ccnc3c(C(=O)NC4CCN(C(=O)[C@H](C)O)CC4)c(C)[nH]c23)c(OCC2CC2)c1 | < 1 nM |
| Cc1[nH]c2c(-c3ccc(F)cc3OCC3CC3)ccnc2c1C(=O)NC1CCN(C(=O)[C@H](C)O)CC1 | 1 to 10 nM |
| COCC(=O)N1CCC(NC(=O)c2c(C)[nH]c3c(-c4cc(F)c(OC)cc4OCC4CC4)ccnc23)CC1 | < 1 nM |

---

Items are presented alongside their recorded IC50.
Molecular target: PDE5A1 (human PDE5 from platelets) (Homo sapiens, UniProt O76074)
Construct: from tissue; host or cells: platelets from fresh blood of human donors (10,000 g supernatant of sonified platelets)
Assay: Inhibition of type 5 phosphodiesterase (PDE5) activity, modified SPA test
Type: biochemical
Details: PDE5-containing human platelet lysate, 0.5 μM cGMP, value classes, read-out: PDE5A1 inhibitory values [measured as −logIC50 (mol/l)] (converted)
metric: IC50

| compound | result |
| --- | --- |
| CCC(=O)N[C@H]1CC[C@@H](NC(=O)c2c(C)[nH]c3c(-c4cc(C)ccc4OCC4CC4)ccnc23)CC1 [Example E59] | 1 to 10 nM |
| Cc1[nH]c2c(-c3cc(F)ccc3OCC3CC3)ccnc2c1C(=O)N[C@H]1CC[C@H](NC(=O)[C@H](C)O)CC1 [Example F15] | < 1 nM |
| COc1ccc(OCC2CC2)c(-c2ccnc3c(C(=O)N[C@@H]4CN(C(=O)CO)C[C@H]4O)c(C)[nH]c23)c1 (relative stereo) [Example F32] | 1 to 10 nM |

---

Target: PDE5A1 (human PDE5 from platelets) (Homo sapiens, UniProt O76074)
Construct: from tissue; host or cells: platelets from fresh blood of human donors (10,000 g supernatant of sonified platelets)
Assay: Inhibition of type 5 phosphodiesterase (PDE5) activity, modified SPA test
Assay type: biochemical
Details: PDE5-containing human platelet lysate, 0.5 μM cGMP, value classes, read-out: PDE5A1 inhibitory values [measured as −logIC50 (mol/l)] (converted)

| compound | IC50 |
| --- | --- |
| COc1ccc(OCC2CC2)c(-c2ccnc3c(C(=O)NC4CCN(C(=O)CO)CC4)c(C)[nH]c23)c1 [Example F26] | 1 to 10 nM |
| COCC(=O)N[C@H]1CC[C@H](NC(=O)c2c(C)[nH]c3c(-c4ccc(OC)cc4OCC4CC4)ccnc23)CC1 [Example E36] | < 1 nM |
| CC(=O)N1CCC(NC(=O)c2c(C)[nH]c3c(-c4c(OCC5CC5)ccc5c4OCO5)ccnc23)CC1 [Example E01] | < 1 nM |
| CC(=O)N[C@H]1CC[C@H](NC(=O)c2c(C)[nH]c3c(-c4cc(F)ccc4OCC4CC4)ccnc23)CC1 [Example E22] | < 1 nM |
| COc1ccc(OCC2CC2)c(-c2ccnc3c(C(=O)N[C@@H]4CN(C(C)=O)C[C@H]4O)c(C)[nH]c23)c1 (relative stereo) [Example E49] | 1 to 10 nM |
| COCC(=O)N1CCC(NC(=O)c2c(C)[nH]c3c(-c4cc(C)ccc4OCC4CC4)ccnc23)CC1 [Example E54] | 1 to 10 nM |
| COCC(=O)N[C@H]1CC[C@@H](NC(=O)c2c(C)[nH]c3c(-c4ccc(F)cc4OCC4CC4)ccnc23)CC1 [Example E18] | 1 to 10 nM |
| Cc1[nH]c2c(-c3cc(F)ccc3OCC3CC3)ccnc2c1C(=O)NC1CCN(C(=O)[C@H](C)O)CC1 [Example F13] | 1 to 10 nM |
| Cc1[nH]c2c(-c3c(OCC4CC4)ccc4c3OCO4)ccnc2c1C(=O)NC1CCN(C(=O)[C@H](C)O)CC1 [Example F02] | < 1 nM |
| CCOC(=O)N[C@H]1CC[C@@H](NC(=O)c2c(C)[nH]c3c(-c4c(OCC5CC5)ccc5c4OCO5)ccnc23)CC1 [Example E09] | < 1 nM |
| COCC(=O)N[C@H]1CC[C@@H](NC(=O)c2c(C)[nH]c3c(-c4cc(F)ccc4OCC4CC4)ccnc23)CC1 [Example E27] | 1 to 10 nM |
| COCC(=O)N[C@H]1CC[C@@H](NC(=O)c2c(C)[nH]c3c(-c4cc(OC)ccc4OCC4CC4)ccnc23)CC1 [Example E48] | 1 to 10 nM |
| COc1ccc(OCC2CC2)c(-c2ccnc3c(C(=O)N[C@H]4CC[C@@H](NC(=O)CO)CC4)c(C)[nH]c23)c1 [Example F30] | < 1 nM |
| COCC(=O)N[C@H]1CC[C@H](NC(=O)c2c(C)[nH]c3c(-c4cc(F)ccc4OCC4CC4)ccnc23)CC1 [Example E24] | < 1 nM |

---

Molecular target: PDE5A1 (human PDE5 from platelets) (Homo sapiens, UniProt O76074)
Construct: from tissue; host or cells: platelets from fresh blood of human donors (10,000 g supernatant of sonified platelets)
Assay: Inhibition of type 5 phosphodiesterase (PDE5) activity, modified SPA test
Assay type: biochemical
Details: PDE5-containing human platelet lysate, 0.5 μM cGMP, value classes, read-out: PDE5A1 inhibitory values [measured as −logIC50 (mol/l)] (converted)
Experimental: Method for Measuring Inhibition of the Type 5 Phosphodiesterase (PDE5) Activity: As a source for human PDE5, platelets are used. For that purpose, 150 ml fresh blood from human donors anticoagulated with citrate [final concentration 0.3% (w/v)] is centrifuged at 200 g for 10 min to obtain the so-called platelet-rich-plasma (PRP) as a supernatant. 1/10 volume of ACD solution (85 mM Na3-citrate, 111 mM D-glucose, 71 mM citric acid, pH 4.4) is added to 9/10 volume of PRP. […]

| molecule | target_entity | IC50 |
| --- | --- | --- |
| Cc1ccc(OCC2CC2)c(-c2ccnc3c(C(=O)N[C@H]4CC[C@@H](NC(=O)[C@H](C)O)CC4)c(C)[nH]c23)c1 | PDE5A1 (human PDE5 from platelets) (Homo sapiens, UniProt O76074) | 1 to 10 nM |
| Cc1[nH]c2c(-c3cc(F)ccc3OCC3CC3)ccnc2c1C(=O)N[C@@H]1CCN(C(=O)CO)C[C@H]1O (relative stereo) | PDE5A1 (human PDE5 from platelets) (Homo sapiens, UniProt O76074) | 1 to 10 nM |
| COc1cc(-c2ccnc3c(C(=O)N[C@H]4CC[C@H](NC(=O)CO)CC4)c(C)[nH]c23)c(OCC2CC2)cc1F | PDE5A1 (human PDE5 from platelets) (Homo sapiens, UniProt O76074) | < 1 nM |
| Cc1ccc(OCC2CC2)c(-c2ccnc3c(C(=O)NC4CCN(C(=O)CO)CC4)c(C)[nH]c23)c1 | PDE5A1 (human PDE5 from platelets) (Homo sapiens, UniProt O76074) | 1 to 10 nM |
| CCC(=O)N[C@H]1CC[C@@H](NC(=O)c2c(C)[nH]c3c(-c4cc(F)ccc4OCC4CC4)ccnc23)CC1 | PDE5A1 (human PDE5 from platelets) (Homo sapiens, UniProt O76074) | 1 to 10 nM |
| COc1cc(-c2ccnc3c(C(=O)N[C@H]4CC[C@@H](NC(C)=O)CC4)c(C)[nH]c23)c(OCC2CC2)cc1F | PDE5A1 (human PDE5 from platelets) (Homo sapiens, UniProt O76074) | < 1 nM |
| COc1cc(-c2ccnc3c(C(=O)N[C@H]4CC[C@H](NC(C)=O)CC4)c(C)[nH]c23)c(OCC2CC2)cc1F | PDE5A1 (human PDE5 from platelets) (Homo sapiens, UniProt O76074) | < 1 nM |
| Cc1ccc(OCC2CC2)c(-c2ccnc3c(C(=O)N[C@H]4CC[C@@H](NC(=O)CO)CC4)c(C)[nH]c23)c1 | PDE5A1 (human PDE5 from platelets) (Homo sapiens, UniProt O76074) | 1 to 10 nM |
| COc1cc(OCC2CC2)c(-c2ccnc3c(C(=O)N[C@H]4CC[C@H](NC(=O)[C@H](C)O)CC4)c(C)[nH]c23)cc1F | PDE5A1 (human PDE5 from platelets) (Homo sapiens, UniProt O76074) | < 1 nM |
